Origin of values: PubChem BioAssay AID449753

# Assay summary: superoxide reduction in chronologically aged yeast, dose response, DHE fluorescence, primary hits (AID 449753)
# Condition set: S. cerevisiae aged culture, superoxide DHE fluorescence, 7 d; at 30 µM (top of the series)
Quantity: percent response (superoxide), lower = inhibition

| Compound | Observed value |
| --- | --- |
| O=c1[nH]c(O)c(C=Nc2ccc(F)c(Cl)c2)c(=O)[nH]1 | 107 |
| C=CCOn1c(=O)c(-c2cccs2)[n+]([O-])c2ccccc21 | 104 |
| CC(C)OC(=O)CSc1nnc(-c2ccc(Cl)cc2Cl)o1 | 112 |
| CC(=O)O[C@H]1CCC2C3CC[C@H]4[C@@H](O)[C@H](O)CC[C@]4(C)C3CC[C@@]21C (stereo partly specified) | 90.2 |
| CCN(CC)C(=O)CSc1nnc(-c2cccc(OC)c2)o1 | 92.6 |
| CCc1nc(NC(C)(C)C)c2cnn(-c3ccccc3)c2n1 | 88 |
| C#C[C@]1(O)[C@H](O)CC2C3CC[C@H]4C[C@@H](O)CC[C@]4(C)C3CC[C@@]21C (stereo partly specified) | 87.4 |
| O=C(OCc1c(F)cccc1Cl)c1cnc2ccccc2n1 | 117 |
| C[C@]12CCC3C(CC[C@H]4C[C@@H](O)CC[C@]34C)[C@H]1CC[C@H]2O (stereo partly specified) | 64.7 |
| O=C(/C=C/c1ccccc1)NC(=S)NNC(=O)Cc1cccs1 | 83 |
| O=C(Nc1cccc(Cl)c1)Nc1ccc2nccnc2c1 | 87.1 |
| N#CCc1nn(-c2ccccc2)c2ncnc(N)c12 | 96.7 |
| CC(=O)[C@@]1(O)CCC2C3CC[C@H]4C[C@@H](O)CC[C@]4(C)C3CC[C@@]21C (stereo partly specified) | 129 |
| O=C(O)c1cnc2ccccc2n1 | 114 |
| COc1ccc2nc3ccccc3nc2c1NC(=O)c1ccccc1Cl | 56.6 |
| O=C(Nc1ccc2nc3ccccc3nc2c1)c1ccc(Br)cc1 | 105 |
| CN(C)CCNc1ncnc2c1cnn2-c1ccc(Cl)cc1 | 99.2 |
| N#CC(c1nc2ccccc2nc1N1CCCC1)S(=O)(=O)c1ccccc1 (stereo unspecified) | 98.7 |
| C[C@]12CCC3C(CC[C@H]4C[C@@H](O)CC[C@]34C)C1CC[C@@H]2OC(=O)[C@H](N)CCCCN (stereo partly specified) | 71.9 |
| O=C(/C=C/c1cccs1)NC(=S)NNC(=O)Cc1cccs1 | 121 |
| O=C(Nc1ccc2nc3ccccc3nc2c1)c1ccccc1 | 57.7 |
